Target: UniProt:P28335
Sequence (P28335 whole entry): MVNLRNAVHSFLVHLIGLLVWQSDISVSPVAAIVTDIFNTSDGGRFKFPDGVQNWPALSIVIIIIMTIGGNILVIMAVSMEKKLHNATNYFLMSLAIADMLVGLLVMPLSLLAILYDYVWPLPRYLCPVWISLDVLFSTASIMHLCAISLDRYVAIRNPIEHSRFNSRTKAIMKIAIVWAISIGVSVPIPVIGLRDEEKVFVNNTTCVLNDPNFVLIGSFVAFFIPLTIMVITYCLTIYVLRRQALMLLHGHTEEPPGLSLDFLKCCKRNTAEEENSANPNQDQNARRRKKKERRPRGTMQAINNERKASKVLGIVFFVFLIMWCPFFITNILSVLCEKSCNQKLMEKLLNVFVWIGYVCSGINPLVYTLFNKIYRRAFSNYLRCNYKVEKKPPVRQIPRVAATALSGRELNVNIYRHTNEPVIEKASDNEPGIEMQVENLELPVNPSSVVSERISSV
Assay: Antagonist activity at 5-HT2C receptor in HEK293 cells assessed as calcium mobilisation by Fluo-4 dye based assay
pIC50: −log10 of the molar value.
reported.endpoint: pIC50

Recorded results for 4 molecules are shown here.
structure.as.smiles	reported.endpoint	measured.value
COc1ccc2c(c1)C(=O)C[C@]1(CN3CCC1CC3)O2	pIC50	< 5.00
O=C1C[C@]2(CN3CCC2CC3)Oc2cc3ccccc3cc21	pIC50	< 4.00
O=C1C[C@]2(CN3CCC2CC3)Oc2ccc(Br)cc21	pIC50	< 5.00
O=C1C[C@]2(CN3CCC2CC3)Oc2ccc(F)cc21	pIC50	< 5.00

Kindly consider the entry below.
Ask: Reported pIC50, molecule `O=C1C[C@]2(CN3CCC2CC3)Oc2ccccc21` : ____
Result: < 5.00
